System: UACC-257 melanoma
assay-info: NCI tumour cell line growth inhibition, 48 h
reported-metric: TGI (µM)
Your answer should be a plain number; it is taken to be in µM.

Solved cases (3 shown):
# record-smiles, reading-unit, TGI
rows = [
    ("CCCNCc1nc2ccc(Br)cc2c(=O)n1CCC", "µM", 26),
    ("CN1C(=O)CNC(=O)[C@H](NC(=O)c2nc3ccccc3cc2O)CSSC[C@H]1C(=O)NCCc1nc2ccccc2cc1O", "µM", 72.9),
    ("COc1ccc2c(c1)CC[C@@H]1[C@@H]2CC[C@@]2(C)[C@H]1CC1(CCCCC1)[C@@H]2O", "µM", 47.2),
]

Switching to the query record.
Form: Entry = O=C1CCCc2c1c1c(n2Cc2ccccc2)-c2ccccc2C1=O | System = UACC-257 melanoma | TGI = ____
32.1

---

Tested on: SW-620 colon
assay-info: NCI tumour cell line growth inhibition, 48 h
reported-metric: TGI

# compound, reported-metric, measured-value
data = [
    ("O=Cc1ccc(-c2ccc(-c3ccc(C=O)s3)o2)s1", "TGI", "> 100 µM"),
]

Quick one: TGI for O=[N+]([O-])c1ccccc1N=Nc1c(O)[nH]c2ccccc12 ?
> 100 µM

What does the data say about its TGI? Entry: CC1=CC(C)(C)N=C2SC(c3ccc(Cl)cc3)=NN12
> 100 µM

What TGI value was documented for this compound, COc1ccc(C2SCC(=O)N2c2ccc(-c3ccc(-n4c(-c5ccccc5)nc5ccccc5c4=O)cc3)cc2)cc1 (centres undefined) ?
> 100 µM

---

Test system: SNB-19 CNS
assay-info: NCI tumour cell line growth inhibition, 48 h
reported-metric: TGI

Reference set, count: 4
# compound, measured-value
data = [
    ("CC(=O)OC1COC(S[As](C)C)C(OC(C)=O)C1OC(C)=O (stereo unspecified)", "49.5 µM"),
    ("CC(C)(C)[Si](C)(C)OCCCC#CCO", "> 100 µM"),
    ("O=S1(=O)CCN(Cc2ccccn2)CC1", "> 100 µM"),
    ("CCC(Sc1nnc2c3ccccc3n(CC)c2n1)C(=O)Nc1ccccc1OC (stereo unspecified)", "> 100 µM"),
]

What does the record list as TGI for CCOc1ccccc1/C=C1\NC(=O)N(/C=C2\C(=O)Oc3ccccc3C2=O)C1=O ?
> 100 µM

What value of TGI has been recorded for this entry: c1ccc(C2SCC3=Nc4ccccc4CN32)cc1 (stereo unspecified)
57.8 µM

Need TGI of O=C(CCC(=O)Nc1ccc(Cl)cc1)CC(=O)c1ccc(F)cc1 , thanks.
> 100 µM

---

This listing pairs compounds with measured log10 of TGI.
Tested on: OVCAR-3 ovarian
assay-info: NCI tumour cell line growth inhibition, 48 h
Plainly stated, the numbers are log10 of TGI given in µM.

# compound, system, reported-metric, measured-value
measured = [
    ("CCc1c2c(nc3cc4c(cc13)OCO4)-c1cc3c(c(=O)n1C2)COC(=O)[C@@]3(CC)OC(=O)CN", "OVCAR-3 ovarian", "log10 of TGI", -0.50),
    ("CCC1CC2CN3CCc4c([nH]c5c(-c6c(OC)ccc7c8c([nH]c67)[C@]6(C(=O)OC)CC7CC(CC)C6N(CC8)C7)c(O)ccc45)[C@](C(=O)OC)(C2)C13 (stereo partly specified)", "OVCAR-3 ovarian", "log10 of TGI", 1.49),
    ("O=C1OCC(C#Cc2ccccc2)=C1Cl", "OVCAR-3 ovarian", "log10 of TGI", 1.03),
    ("NC1C/C(=N\\O)c2c(I)sc(I)c21 (stereo unspecified)", "OVCAR-3 ovarian", "log10 of TGI", 1.48),
]

# next compound below
// fetch OVCAR-3 ovarian log10 of TGI for CC1(c2ccc(Cl)cc2)CC(c2ccc(Cl)cc2)=C(C#N)C(=C(C#N)C#N)N1 (stereo unspecified)
1.39
